The values you see were collected from patent US20240010720A1.

Molecular target: T1, His-tagged extracellular domain (ECD) of human IGSF11 (VSIG3) (human, UniProt Q5DX21 23-241)
T1 construct: partly bought (SinoBiological 13094-H08H); also called IGSF11-HIS; HIS-IGSF11; not shown: HIS6 tag
T1 sequence: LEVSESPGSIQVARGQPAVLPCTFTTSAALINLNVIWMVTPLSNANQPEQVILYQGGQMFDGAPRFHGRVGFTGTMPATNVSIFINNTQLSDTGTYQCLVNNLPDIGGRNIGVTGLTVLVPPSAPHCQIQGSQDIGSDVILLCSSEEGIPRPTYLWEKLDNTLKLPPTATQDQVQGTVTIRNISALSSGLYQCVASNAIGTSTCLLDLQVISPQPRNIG
Assay: ELISA EC50 grade, IgG1
assayReadout: EC50

Reference set, count: 2
>>> valuereported("A-011 (IgG1 format) (antibody, V domains shown, human IgG1 format) VH: QVQLVESGGGVVQPGRSLRLSCAASGFTFSSYAMHWVRQAPGKGLEWVAVISYDGSNKYYADSVKGRFTISRDNSKNTLYLQMNSLRAEDTAVYYCAEGGALNYYGMDVWGQGTTVTVSS VL: SSELTQDPGVSVALGQTVRITCQGDSLRHFYATWYQQKPGQAPILVIYGKNNRPSGIPDRFSGSSSEDTASLTITGAQAEDEADYYCQSRDPRNNHLIFGGGTKLIVL")
"< 0.02 nM"
>>> valuereported("A-026 (IgG1 format) (antibody, V domains shown, human IgG1 format) VH: QVQLQESGPGLVKPSQTLSLTCTVSGGSISSGGYYWSWIRQHPGKGLEWIGYIYYSGSTYYNPSLKSRVTISVDTSKNQFSLKLSSVTAADTAVYYCASWSLGTSNHGWFDPWGQGTLVTVSS VL: QSVLTQPPSASGTPGQRVTISCSGSSSNIGSNTVNWYQQLPGTAPKLLISDNNNRPSGVPDRFSGSKSGTSASLAITGLQAEDEADYYCQSYDSNLSGWVFGGGTKLTVL")
"0.02 to 0.05 nM"

Data request: Name the reported EC50 value associated with the binder A-034 (IgG1 format) (antibody, V domains shown, human IgG1 format) VH: QMQLVQSGGGLVKPGGSLRLSCAASGFTFSSYTMNWVRQAPGKGLEWVSSISSIGTYIYYADSVKGRFTISRDNAKNSLYLQMNSLRAEDTAVYYCARVLLSGSYYGYFDSWGQGTLVTVSS VL: QSVLTQPPSVSGAPGQRVTISCTGSSSNIGAGYDVHWYQQLPGTAPKLFIYGNSNRPSGVPDRFSGSKSGTSASLAITGLQAEDEADYYCQSYDSSLSGYVFGTGTKVTVL
Data returned: 0.05 to 1 nM

Data request: Name the reported EC50 value associated with the binder A-009 (IgG1 format) (antibody, V domains shown, human IgG1 format) VH: QVQLVQSGAEVKKPGSSVKVSCKASGGTFSSYAISWVRQAPGQGLEWMGGIIPIFGTANYAQKFQGRVTITADESTSTAYMELSSLRSEDTAVYYCARGRGFGELYFDYWGQGTLVTVSS VL: ETTLTQSPATLSVSPGERATLSCRASQGVRSNIAWYQQKPGQAPRLLIYDSSTRATGIPARFSGSGSGTEFTLTISSLQSEDFAVYSCQQYKNWPRTFGQGTKVEIK
Data returned: 0.05 to 1 nM

Data request: Name the reported EC50 value associated with the binder A-016 (IgG1 format) (antibody, V domains shown, human IgG1 format) VH: QVQLQESGAEVKKPGASVKVSCKASGYTFTGYYMHWVRQAPGQGLEWMGGIIPIFGTANYAQKFQGRVTITADESTSTAYMELSSLRSEDTAVYYCAGAGMELTRSGAYYYYGMDVWGQGTTVTVSS VL: QSALTQPASVSGSPGQSITISCTGTSSDIGGYTFVSWYQQHPGKAPKVMIHDVNNRPSGISNRFSGSKSGNTASLTISGLQAEDEADYYCSSVTSTNTYVFGTGTKVTVL
Data returned: < 0.02 nM
